target: IDH (endogenous IDH1 R132C) in HT1080 cell (Homo sapiens, UniProt O75874, R132C); construct: which harbor endogenous heterozygous IDH1 R132C and R132H mutation respectively and accumulate D-2-HG; test: Cell-based assay for IDH inhibition (decrease of D-2-HG) in HT1080 cells; conditions: human fibrosarcoma cell line HT1080, 16 hours treatment, D-2-HG by LC-MS, in triplet
Sequence (O75874 2-414 R132C): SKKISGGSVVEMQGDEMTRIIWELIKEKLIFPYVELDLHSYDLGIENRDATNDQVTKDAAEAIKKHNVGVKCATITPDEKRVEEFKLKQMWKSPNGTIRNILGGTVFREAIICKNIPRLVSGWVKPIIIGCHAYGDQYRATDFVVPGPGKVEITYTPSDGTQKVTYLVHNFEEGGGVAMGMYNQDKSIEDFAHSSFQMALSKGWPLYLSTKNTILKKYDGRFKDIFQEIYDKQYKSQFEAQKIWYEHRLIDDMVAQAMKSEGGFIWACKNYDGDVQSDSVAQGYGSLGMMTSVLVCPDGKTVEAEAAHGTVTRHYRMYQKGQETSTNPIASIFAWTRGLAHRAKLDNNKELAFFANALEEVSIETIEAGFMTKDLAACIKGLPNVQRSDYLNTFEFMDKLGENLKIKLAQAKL
Below, each entry is listed alongside its reported IC50.

Illustrative cases are given below, each with its answer.
COMPOUND | IC50
CCN1Cc2c(ccnc2N[C@@H](C)c2cc(F)c(-c3ccnc(-c4ccnc(Cl)c4)c3)cc2F)C1=O [Compound 96] | 100 to 500 nM
CCN1Cc2c(ccnc2N[C@@H](C)c2ccc(Oc3ccc4c(c3)CCN4C)c(F)c2)C1=O [Compound 29] | > 1000 nM
CCN1Cc2c(ccnc2N[C@@H](C)c2cc(F)c(-c3cc(C(C)(C)F)ncc3CF)cc2F)C1=O [Compound 139] | < 100 nM
CCN1Cc2c(ccnc2N[C@@H](C)c2cc(F)c(-c3ccnc(C4CC(F)(F)C4)c3)cc2F)C1=O [Compound 97] | 100 to 500 nM
CCN1Cc2c(ccnc2N[C@@H](C)c2cc(F)c(-c3cc(C(F)(F)F)cc(OC)n3)cc2F)C1=O [Compound 142] | 100 to 500 nM
CCN1Cc2c(ccnc2N[C@@H](C)c2cc(F)c(-c3cc(NC(C)(C)C)cc(C)n3)cc2F)C1=O [Compound 128] | 100 to 500 nM
CCN1Cc2c(ccnc2N[C@@H](C)c2cc(F)c(-c3cc(C(C)(C)C)ncc3F)cc2F)C1=O [Compound 104] | < 100 nM
CCN1Cc2c(ccnc2N[C@@H](C)c2ccc(OC3CCC(F)(F)C3)c(F)c2)C1=O (some centres unmarked) [Compound 27] | > 1000 nM
CCN1Cc2c(ccnc2N[C@@H](C)c2cc(F)c(-c3cc(C4(C(F)(F)F)CC=NN4)ccn3)cc2F)C1=O (some centres unmarked) [Compound 126] | 100 to 500 nM
CCN1Cc2c(ccnc2N[C@@H](C)c2cc(F)c(-c3cc(C4(C(F)(F)F)CC4)ccn3)cc2F)C1=O [Compound 124] | < 100 nM

Lookup: Requested field: IC50. Item: CCN1Cc2c(ccnc2N[C@H](C)c2cn(-c3ccc(Cl)cc3)cn2)C1=O [Compound 58]
Found: > 1000 nM

Lookup: Another compound to check: CCN1Cc2c(ccnc2N[C@@H](C)c2cc(F)c(-c3cc(C(C)(C)F)c(OC)nn3)cc2F)C1=O [Compound 153]
Found: < 100 nM

----------
Measured pIC50 of individual entries
biological target: IDH (endogenous IDH1 R132C) in HT1080 cell (Homo sapiens, UniProt O75874, R132C); construct: which harbor endogenous heterozygous IDH1 R132C and R132H mutation respectively and accumulate D-2-HG; experiment: Cell-based assay for IDH inhibition (decrease of D-2-HG) in HT1080 cells; settings: human fibrosarcoma cell line HT1080, 16 hours treatment, D-2-HG by LC-MS, in triplet
pIC50: −log10 of the molar value.

COMPOUND | RESULT
CCN1Cc2c(ccnc2N[C@@H](C)c2cc(F)c(-c3cc(C(F)(F)F)cc(O)n3)cc2F)C1=O [Compound 157] | < 6.00
CCN1Cc2c(ccnc2N[C@@H](C)c2cc(F)c(-c3cc(C(C)(C)C)c(OC)cn3)cc2F)C1=O [Compound 150] | > 7.00
CCN1Cc2c(ccnc2N[C@@H](C)c2ccc(C3CCCC3)c(F)c2)C1=O [Compound 68] | < 6.00
CCN1Cc2c(ccnc2N[C@@H](C)c2cc(F)c(-c3cn(C(C)(C)C)cn3)cc2F)C1=O [Compound 160] | 6.30 to 7.00
CCN1Cc2c(ccnc2N[C@@H](C)c2cc(F)c(-c3cc(C(F)(F)F)ncc3OCOC)cc2F)C1=O [Compound 145] | 6.30 to 7.00

// next entry
Lookup: Item CCN1Cc2c(ccnc2N[C@@H](C)c2ccc(-c3ccc(C)cn3)c(F)c2)C1=O [Compound 82] has what recorded pIC50?
Found: < 6.00

----------
molecular target: IDH1 R132C (Homo sapiens, UniProt O75874, R132C); construct: 6xHis; test: Biochemical assay for IDH inhibition (NADPH fluorescence), mutant IDH1 R132C; details: 25 nM IDH1-R132C, 1 hour pre-incubation, in triplet
Sequence (O75874 whole entry R132C): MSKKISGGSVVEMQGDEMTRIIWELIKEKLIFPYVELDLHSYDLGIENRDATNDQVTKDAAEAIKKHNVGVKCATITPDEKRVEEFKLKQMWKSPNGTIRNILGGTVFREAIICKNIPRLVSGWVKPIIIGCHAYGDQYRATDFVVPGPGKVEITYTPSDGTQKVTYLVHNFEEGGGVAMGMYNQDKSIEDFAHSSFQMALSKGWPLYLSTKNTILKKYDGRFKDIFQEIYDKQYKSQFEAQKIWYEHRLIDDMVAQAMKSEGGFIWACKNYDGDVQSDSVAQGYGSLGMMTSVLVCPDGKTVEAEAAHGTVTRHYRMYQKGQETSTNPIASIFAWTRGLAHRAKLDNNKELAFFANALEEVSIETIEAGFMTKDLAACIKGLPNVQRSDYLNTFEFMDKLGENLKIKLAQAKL
Below, each entry is listed alongside its reported IC50.

Consider the reported IC50 for these compounds:
SAMPLE SMILES | IC50
CCN1Cc2c(ccnc2N[C@@H](C)c2ccc(-c3ccc(F)c(C)c3)c(F)c2)C1=O | 500 to 1000 nM
CCN1Cc2c(ccnc2N[C@@H](C)c2ccc(Oc3ccc4c(c3)ncn4C)c(F)c2)C1=O | > 1000 nM
CCN1Cc2c(ccnc2N[C@@H](C)c2ncc(-c3ccc(OC)cc3)cn2)C1=O | > 1000 nM
C[C@H](Nc1nccc2c1CN([C@H](C)CF)C2=O)c1ccc(-c2ccnc(C(C)(C)C)c2)c(F)c1 | 100 to 500 nM
CCN1Cc2c(ccnc2N[C@@H](C)c2ccc(C(=O)c3cccnc3)c(F)c2)C1=O | > 1000 nM
CCN1Cc2c(ccnc2N[C@@H](C)c2cc(F)c(-c3ccnc(Cl)c3)cc2F)C1=O | > 1000 nM

Lookup: Record request: IC50 value, item CCN1Cc2c(ccnc2N[C@@H](C)c2cc(F)c(O[C@H]3C[C@@H](C)CC(C)(C)C3)cc2F)C1=O
Found: < 100 nM

----------
target: IDH (endogenous IDH1 R132C) in HT1080 cell (Homo sapiens, UniProt O75874, R132C); construct: which harbor endogenous heterozygous IDH1 R132C and R132H mutation respectively and accumulate D-2-HG; assay: Cell-based assay for IDH inhibition (decrease of D-2-HG) in HT1080 cells; settings: human fibrosarcoma cell line HT1080, 16 hours treatment, D-2-HG by LC-MS, in triplet
MEASUREMENT KIND: IC50

SAMPLE SMILES | IC50
COCCN1Cc2c(ccnc2N[C@@H](C)c2cc(F)c(-c3ccnc(C(C)(C)C)c3)cc2F)C1=O | > 1000 nM

Lookup: Using the record for CCN1Cc2c(ccnc2N[C@@H](C)c2cc(F)c(-c3cc(C(F)(F)F)c(OC)cn3)cc2F)C1=O , report its IC50.
Found: < 100 nM

Lookup: For CCN1Cc2c(ccnc2N[C@@H](C)c2cc(F)c(-c3cc(C(C)(C)F)c(Cl)cn3)cc2F)C1=O then?
Found: < 100 nM

Lookup: Another compound to check: CCN1Cc2c(N[C@@H](C)c3ccc(OC4CCCC4)c(F)c3)ncc(F)c2C1=O
Found: > 1000 nM

----------
Target: IDH1 R132H (Homo sapiens, UniProt O75874, R132H)
Construct: 6xHis
Sequence (O75874 whole entry R132H): as the sequence (O75874 whole entry R132C) above, with C132H counted along it
Assay: Biochemical assay for IDH inhibition (NADPH fluorescence), mutant IDH1 R132H
Details: 50 nM IDH1-R132H, 1 hour pre-incubation, in triplet
Description: The present disclosure provides a biochemical assay method for detecting the IDH inhibition and selectivity of the compounds by detecting IDH enzyme activity directly. Wild-type IDH enzymes convert NADP^+ to NADPH when catalyzing the α-KG producing reaction. […] So, the activity of wild-type and mutant IDH1/2 could be measured by monitoring NADPH level change as NADPH is fluorescent (Excitation 340 nm, Emission 460 nm). […]
pIC50: −log10 of the molar value.
Measured pIC50, listed per entry for reference.

Example cases with answers are listed next.
COMPOUND | pIC50
CCN1Cc2c(ccnc2N[C@@H](C)c2ccc(-c3ccc(C(F)(F)F)cc3)c(F)c2)C1=O [Compound 33] | 6.00 to 6.30
CCN1Cc2c(ccnc2N[C@@H](C)c2cc(F)c(-c3cc(C4(C(F)(F)F)CC4)ccn3)cc2F)C1=O [Compound 124] | > 7.00
CCN1Cc2c(ccnc2N[C@@H](C)c2cc(F)c(-c3ccnc(-c4cccnc4)c3)cc2F)C1=O [Compound 99] | < 6.00

Lookup: Return reported pIC50; argument: CCN1Cc2c(ccnc2N[C@@H](C)c2cc(F)c(-c3cc(C(C)(C)F)cc(OC)n3)cc2F)C1=O [Compound 120]
Found: > 7.00

----------
biological target: IDH1 R132H (Homo sapiens, UniProt O75874, R132H); construct: 6xHis; assay: Biochemical assay for IDH inhibition (NADPH fluorescence), mutant IDH1 R132H; details: 50 nM IDH1-R132H, 1 hour pre-incubation, in triplet
MEASUREMENT KIND: IC50

Consider the following illustrative entries.
COMPOUND | IC50
CCN1Cc2c(ccnc2N[C@@H](C)c2cc(F)c(-c3cc(OC(C)(C)C)ncc3C)cc2F)C1=O [Compound 151] | < 100 nM
CCN1Cc2c(ccnc2N[C@@H](C)c2cc(F)c(-c3cc(C(C)(C)F)c(C)cn3)cc2F)C1=O [Compound 127] | < 100 nM
CCN1Cc2c(ccnc2N[C@@H](C)c2ccc(Oc3ccc4c(ccn4CCO)c3)c(F)c2)C1=O [Compound 10] | 500 to 1000 nM

For the next question, use this compound.
Lookup: Would you kindly share the measured IC50 for C[C@H](Nc1nccc2c1CN([C@H](C)CF)C2=O)c1ccc(-c2ccnc(C(C)(C)C)c2)c(F)c1 [Compound 40] ?
Found: < 100 nM
